target: human BCL6 BTB domain (Trx-6xHis-BCL6) (Homo sapiens (Human), UniProt P41182); assay: HTRF in vitro assay (BCL6 BTB domain / BCOR-AF633 peptide); format: binding; conditions: further generated data (Table 1b); 1 nM Trx-6xHis-BCL6, 0.5 nM anti-6xHis-Terbium cryptate
# note: exactly 7 is not below, so it is criterion not met; use criterion met for HTRF pIC50 strictly under it

>  <compound>
Cc1nccc(Nc2ccc3c(c2)c(NC(C)c2ncccn2)cc(=O)n3C)c1C#N (stereo not shown) [Example 18a]

>  <tgt>
human BCL6 BTB domain (Trx-6xHis-BCL6) (Homo sapiens (Human), UniProt P41182)

>  <cat>
criterion met

$$$$
>  <compound>
CN(C)C(=O)C1CCN(c2ncc(Cl)c(Nc3ccc4c(c3)c(NC(C)(C)c3ncccn3)cc(=O)n4C)n2)CC1 [Example 16a]

>  <tgt>
human BCL6 BTB domain (Trx-6xHis-BCL6) (Homo sapiens (Human), UniProt P41182)

>  <cat>
criterion met

$$$$
>  <compound>
C#CCCNC(=O)[C@@H](C)Nc1cc(=O)n(C)c2ccc(Nc3ccnc(Cl)c3C#N)cc12 [Example 3f]

>  <tgt>
human BCL6 BTB domain (Trx-6xHis-BCL6) (Homo sapiens (Human), UniProt P41182)

>  <cat>
criterion met

$$$$
>  <compound>
Cn1c(=O)cc(NC(C)(C)c2ncccn2)c2cc(Nc3cc(C(=O)O)nc(Cl)c3C#N)ccc21 [Example 9f]

>  <tgt>
human BCL6 BTB domain (Trx-6xHis-BCL6) (Homo sapiens (Human), UniProt P41182)

>  <cat>
criterion not met

$$$$
>  <compound>
Cc1cc(C(C)Nc2cc(=O)n(C)c3ccc(Nc4ccnc(Cl)c4C#N)cc23)no1 (stereo not shown) [Example 1m]

>  <tgt>
human BCL6 BTB domain (Trx-6xHis-BCL6) (Homo sapiens (Human), UniProt P41182)

>  <cat>
criterion met

$$$$

---

molecular target: human BCL6 BTB domain (Trx-6xHis-BCL6) (Homo sapiens (Human), UniProt P41182); assay: HTRF in vitro assay (BCL6 BTB domain / BCOR-AF633 peptide); format: binding; settings: further generated data (Table 1b); 1 nM Trx-6xHis-BCL6, 0.5 nM anti-6xHis-Terbium cryptate
Lab note: anything with HTRF pIC50 at or over 7 counts as t; the rest go in f.

>  <compound>
Cn1c(=O)cc(NC(c2ncccn2)C2CC2)c2cc(Nc3ccnc(Cl)c3C#N)ccc21 (stereo not drawn) [Example 10p]

>  <cat>
f

$$$$
>  <compound>
Cn1cc(CNC(=O)C(C)(C)Nc2cc(=O)n(C)c3ccc(Nc4ccnc(Cl)c4C#N)cc23)cn1 [Example 11c]

>  <cat>
f

$$$$
>  <compound>
C[C@@H]1C[C@H](C)CN(c2ncc(Cl)c(Nc3ccc4c(c3)c(NC(C)(C)c3ncccn3)nc(=O)n4C)n2)C1 [Example 26g]

>  <cat>
f

$$$$
>  <compound>
CCC(C)(C)Nc1cc(=O)n(C)c2ccc(Nc3cc(C(=O)O)nc(Cl)c3C#N)cc12 [Example 9o]

>  <cat>
f

$$$$
>  <compound>
CC(CCO)Nc1nc(=O)n(C)c2ccc(Nc3ccnc(Cl)c3C#N)cc12 (stereo not drawn) [Example 1k]

>  <cat>
f

$$$$
>  <compound>
Cn1c(=O)cc(NC(C)(C)c2ncccn2)c2cc(Nc3cc(Cl)nc(Cl)c3Cl)ccc21 [Example 13]

>  <cat>
f

$$$$
>  <compound>
Cn1c(=O)nc(NC(C)(C)c2ncccn2)c2cc(Nc3nc(N4CCC(F)(F)C(CO)C4)ncc3Cl)ccc21 (stereo not drawn) [Example 12i]

>  <cat>
t

$$$$
>  <compound>
Cn1c(=O)cc(NC(C)(C)c2ncc(C3CC3)cn2)c2cc(Nc3ccnc(Cl)c3C#N)ccc21 [Example 10a]

>  <cat>
t

$$$$
>  <compound>
CC(Nc1cc(=O)n(C)c2ccc(Nc3nc(N4CCC5(CCCN(C)C5=O)CC4)ncc3Cl)cc12)c1ncccn1 (stereo not drawn) [Example 17g]

>  <cat>
f

$$$$
>  <compound>
CC(Nc1cc(=O)n(C)c2ccc(Nc3ccnc(Cl)c3Cl)cc12)c1ncccn1 (stereo not drawn) [Example 6a]

>  <cat>
f

$$$$
>  <compound>
Cn1c(=O)cc(N[C@H]2C[C@H](O)C2)c2cc(Nc3ccnc(Cl)c3C#N)ccc21 [Example 1f]

>  <cat>
f

$$$$
>  <compound>
CN(C)C(=O)C1CCN(c2ncc(Cl)c(Nc3ccc4c(c3)c(NC3(C#N)CC3)cc(=O)n4C)n2)CC1 [Example 16b]

>  <cat>
f

$$$$
>  <compound>
Cn1c(=O)cc(NC2(C#N)CC2)c2cc(Nc3ccnc(Cl)c3C#N)ccc21 [Example 24b]

>  <cat>
f

$$$$
>  <compound>
CNC(=O)c1cc(Nc2ccc3c(c2)c(NC(C)c2ncccn2)cc(=O)n3C)c(C#N)c(C)n1 (stereo not drawn) [Example 18b]

>  <cat>
f

$$$$
>  <compound>
Cn1c(=O)cc(NC(C)(C)c2ncccn2)c2cc(Nc3cc(C(=O)N4CC(CC#N)C4)nc(Cl)c3C#N)ccc21 [Example 8h]

>  <cat>
t

$$$$
